Attribution: the RNAGym collection of RNA variant scans (doi:10.1126/science.aae0568)

B1: tRNA (parent)
chain: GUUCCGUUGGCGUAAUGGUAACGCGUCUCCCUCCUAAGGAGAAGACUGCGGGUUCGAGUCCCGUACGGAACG

# Variants of: B1
# Assay Overview: yeast fitness relative to wild type (ratio to wild type); higher = fitter; tRNA-Arg(CCU), competitive growth, 37 C, YPD
This sample holds only a part of the variants without activity.
Recorded yeast fitness determines the group label, using bin 1: < 0.6; bin 2: ≥ 0.6 and < 0.7; bin 3: ≥ 0.7

Solved cases (6 shown):
INSERT INTO assay_data (mutation, answer_label) VALUES
  ('C34A A57C', 'bin 1'),
  ('U13G A42G', 'bin 3'),
  ('C31A U32C C46U', 'bin 1'),
  ('C22U C30G G51C G56U', 'bin 1'),
  ('C4U C11A A14C U28A C31U A37U G39A A42G', 'bin 2'),
  ('U7G C55G G63A G68C', 'bin 1');

Query: Classify this variant: U8C U13G C22U
Response: bin 1

Query: Classify this variant: A14U G18A C24A C34A
Response: bin 1

Query: Classify this variant: A15U C46G C61A
Response: bin 1

Query: Classify this variant: U2C G12C A40C
Response: bin 1

Query: Classify this variant: C4G A14G A37U G38A
Response: bin 1

Query: Classify this variant: A37C C62A
Response: bin 3
